TGI listing for selected compounds.
# System: CCRF-CEM leukemia
# assay: NCI tumour cell line growth inhibition, 48 h
Quick reminder: number only, in µM, skip the unit.

{"columns": ["compound", "measured-quantity", "reported"],
 "data": [
  ["CSC(=O)c1sc(SC)[n+](-c2ccccc2)c1O", "TGI", 38.1],
  ["Cc1ccc(S(=O)(=O)N2CC2CCCCC=O)cc1 (stereo not given)", "TGI", 55.1],
  ["COC(=O)c1cc2oc(/C=C3/SC(=S)N(NC(C)=O)C3=O)cc2n1C", "TGI", 76],
  ["C=C1C(=O)O[C@@H]2/C=C(C)/C=C\\[C@@H]3O[C@@]3(C)C[C@@H](O)C12 (stereo not given in full)", "TGI", 4.93]
]}

Now consider a different compound.
Q: Name the reported TGI value associated with the compound `COc1cc2c(/C=C3/C(=O)Nc4cccc(Cl)c43)c(Cl)[nH]c2cc1C`
A: 3.3

----------
# TGI listing for each entry below
# Test system: IGROV1 ovarian
# assay: NCI tumour cell line growth inhibition, 48 h

Here are 3 compounds together with their reported answers.
{"columns": ["compound", "reported"],
 "data": [
  ["O=c1[nH]c(-c2ccccc2)nc2cc(Cl)ccc12", "> 100 µM"],
  ["COc1ccc(NC(=S)c2ccc(CN3CCCCC3)s2)cc1", "49.2 µM"],
  ["CC1=C/C(=N\\NC(N)=S)C(C(O)(C(F)(F)F)C(F)(F)F)C(C)(C)C1 (stereo not given)", "> 10 µM"]
]}

Q: Lab request: please report TGI under test system IGROV1 ovarian for CC(=O)CC1CCC(=O)/C=C/C(=O)OC(CC(C)=O)CCC(=O)/C=C/C(=O)O1 (stereo not given)
A: 32.1 µM

Q: GET /values?readout=TGI&system=IGROV1 ovarian&item= `O=c1c(F)cn(Cc2c(Cl)cccc2Cl)c(=O)n1Cc1c(Cl)cccc1Cl`
A: > 31.6 µM

Q: TGI of `COC(=O)c1ccc(Cc2cc(Cc3ccc(C(=O)OC)cc3)cc(Cc3ccc(C(=O)OC)cc3)c2)cc1` on IGROV1 ovarian?
A: > 25 µM

Q: Return TGI measured with IGROV1 ovarian given this compound: `O=c1c2cccnc2ncn1CCN1CCCCC1`
A: > 100 µM

Q: I'm curious: which TGI was measured for `CC(=O)Nc1cc2ccc(=O)oc2cc1Cl` tested on IGROV1 ovarian?
A: > 100 µM

Q: Recall the recorded TGI for `N#Cc1cccc(-n2[nH]c(=O)ccc2=O)c1` with IGROV1 ovarian and state it.
A: > 100 µM

Q: I'm curious: which TGI was measured for `CCOC(=O)/C(=C/c1ccc(OC)cc1)N(CC)CC` tested on IGROV1 ovarian?
A: > 100 µM

----------
# System: IGROV1 ovarian
# assay: NCI tumour cell line growth inhibition, 48 h; in the data active = GI50 below about 0.43 µM; inactive = the rest
Respond only with the outcome that fits, drawn from active, inactive

A selection of reference data follows.
{"columns": ["compound", "cat"],
 "data": [
  ["O=C1C(C(Nc2ccccc2)c2ccccc2)=C([O-])c2ccccc21.O=C1C(C(Nc2ccccc2)c2ccccc2)=C([O-])c2ccccc21.[Cu+2] (stereo not given)", "inactive"],
  ["CCCCCCOc1ccc(/C=N/Nc2cc(C)nc3ccc(Cl)cc23)cc1", "inactive"],
  ["CN1CCN(c2ccc(Nc3ncc(Cl)c(NC[C@@H]4CCCO4)n3)cc2)CC1", "inactive"],
  ["Cc1nnc2ccnn2c1C", "inactive"]
]}

Q: Name the outcome recorded for `NC(=S)N/N=C\c1nccc2c(C(F)(F)F)cccc12` in the assay.
A: active
